# Study System: hMC2 receptor (crude hMC2R membranes from CRE-bla-CHO-K1 cells stably expressing hMC2 receptor and hMRAP accessory protein) (Homo sapiens, UniProt Q01718)
# Sequence (Q01718 whole entry): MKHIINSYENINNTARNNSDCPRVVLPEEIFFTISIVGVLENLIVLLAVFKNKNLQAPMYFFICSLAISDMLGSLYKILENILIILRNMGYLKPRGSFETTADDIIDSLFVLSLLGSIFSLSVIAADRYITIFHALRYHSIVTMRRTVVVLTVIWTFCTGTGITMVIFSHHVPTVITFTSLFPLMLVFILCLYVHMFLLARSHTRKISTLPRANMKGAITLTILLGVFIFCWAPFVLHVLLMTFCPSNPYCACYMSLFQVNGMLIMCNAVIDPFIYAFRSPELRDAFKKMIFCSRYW
# Sequence (Q8TCY5 whole entry partner): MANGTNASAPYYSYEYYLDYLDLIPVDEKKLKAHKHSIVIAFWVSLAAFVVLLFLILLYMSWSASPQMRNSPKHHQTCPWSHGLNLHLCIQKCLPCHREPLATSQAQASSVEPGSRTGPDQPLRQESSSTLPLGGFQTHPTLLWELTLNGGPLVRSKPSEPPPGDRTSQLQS
Readout Name: Ki

CCOc1ncccc1-c1ccc(C2(C(=O)N[C@@H](C)CNC)CCN(c3ccc(C(F)(F)F)cc3C#N)CC2)cn1 ... < 10 nM
CCOc1ncccc1-c1ccc(C2(C(=O)NCCN)CCN(c3ccc(C(F)(F)F)cc3C#N)CC2)cc1 ... 10 to 100 nM
CCOc1ncccc1-c1ncc(C2(C(=O)N[C@H]3CCN(C)C3)CCN(c3ccc(C(F)(F)F)cc3Cl)CC2)cc1F ... < 10 nM

Turning to the following molecule.
Query :: Using the record for CCOc1ccccc1-c1ncc(C2(C(=O)NCCNC)CCN(c3ccc(C(F)(F)F)cc3Cl)CC2)cc1F , report its Ki.
Result :: < 10 nM

###

# Study System: hMC2 receptor (crude hMC2R membranes from CRE-bla-CHO-K1 cells stably expressing hMC2 receptor and hMRAP accessory protein) (Homo sapiens)
The entries below are paired with their reported Ki.

For orientation, consider the following solved cases.
CCOc1ncccc1-c1ccc(C2(NCCNC)CCN(c3ccc(C(F)(F)F)cc3C#N)CC2)cn1 ... 10 to 100 nM
CCOc1ncccc1-c1ccc(C2(C(=O)NC[C@H](CO)NC)CCN(c3ccc(C(F)(F)F)cc3C#N)CC2)cn1 ... < 10 nM
CCOc1ncccc1-c1ncc(C2(C(=O)N[C@@H](C)CN(C)C)CCN(c3ccc(C(F)(F)F)cc3C#N)CC2)cc1F ... < 10 nM
CN1CC[C@H](C(=O)NC2(c3ccc(-c4cccn4C)nc3)CCN(c3ccc(C(F)(F)F)cc3C#N)CC2)C1 ... < 10 nM
CN1CC[C@@H](NC(=O)C2(c3ccc(-c4ccccc4CC#N)nc3)CCN(c3ccc(C(F)(F)F)cc3C#N)CC2)C1 ... 10 to 100 nM

Query :: Suppose we examine the molecule CCOc1ncccc1-c1ccc(C2(C(=O)NC3CN(C)CC3O)CCN(c3ccc(C(F)(F)F)cc3C#N)CC2)cn1 (single isomer, unassigned) [Compound 1-41] ; what Ki value has been reported?
Result :: < 10 nM

Query :: Value lookup for Ki; key = COc1ncc(F)cc1-c1ncc(C2(C(=O)N[C@H]3CCN(C)C3)CCN(c3ccc(C(F)(F)F)cc3F)CC2)cc1F
Result :: < 10 nM

###

# Study System: hMC2 receptor (crude hMC2R membranes from CRE-bla-CHO-K1 cells stably expressing hMC2 receptor and hMRAP accessory protein) (Homo sapiens, UniProt Q01718)
Readout Name: Ki

CN1CC[C@H](NC(=O)C2(c3ccc(-c4cccn4C)nc3)CCN(c3ccc(C(F)(F)F)cc3C#N)CC2)C1 ... < 10 nM
CCOc1ncccc1-c1ccc(C2(C(=O)N[C@@H]3CCN(C)C3)CCN(c3ccc(C(F)(F)F)nc3C(N)=O)CC2)cn1 ... 10 to 100 nM

Here is another molecule to look at.
Query :: What does the data say about its Ki? Entry: CCOc1ncccc1-c1ccc(C2(NC(=O)CCN)CCN(c3ccc(C(F)(F)F)cc3C#N)CC2)cn1
Result :: < 10 nM

###

# Study System: hMC2 receptor (crude hMC2R membranes from CRE-bla-CHO-K1 cells stably expressing hMC2 receptor and hMRAP accessory protein) (Homo sapiens, UniProt Q01718)
pKi: −log10 of the molar value.
Readout Name: pKi

Worked examples, 8 compounds total:
CN(C)CCCNC(=O)C1(c2ccc(-c3cccn3C)nc2)CCN(c2ccc(C(F)(F)F)cc2C#N)CC1 [Compound 1-207] ... > 8.00
CCOc1ncccc1-c1ccc(C2(NC(=O)[C@H]3CCN(C)C3)CCN(c3ccc(C(F)(F)F)cc3C#N)CC2)cn1 [Compound 2-9] ... > 8.00
CN1C[C@H](NC(=O)C2(c3ccc(-c4cccn4C)nc3)CCN(c3ccc(C(F)(F)F)cc3C#N)CC2)[C@@H](O)C1 [Compound 1-270] ... > 8.00
COc1ccccc1-c1ccc(C2(C(=O)N[C@H]3C[C@H]4CC[C@@H]3N4C)CCN(c3ccc(C(F)(F)F)cc3C#N)CC2)cn1 (racemic) [Compound 1-252] ... 7.00 to 8.00
CNCCNC(=O)C1(c2ccc(-c3cccn3C)nc2)CCN(c2ccc(C(F)(F)F)cc2F)CC1 [Compound 1-281] ... > 8.00
CNCCNC(=O)C1(c2cnc(-c3ccccc3OC)c(F)c2)CCN(c2ccc(C(F)(F)F)cc2F)CC1 [Compound 1-293] ... > 8.00
CNC[C@H](C)NC(=O)C1(c2cnc(-c3cccn3C)c(F)c2)CCN(c2ccc(C(F)(F)F)cc2C#N)CC1 [Compound 1-326] ... > 8.00
CCOc1ncccc1-c1ccc(C2(C(=O)N[C@H]3CCN(C)C3)CCN(c3ccc(C(C)(F)F)cc3C#N)CC2)cn1 [Compound 1-59] ... > 8.00

The record that follows has no pKi shown yet.
Query :: Quick one: pKi for CCOc1ncccc1-c1cnc(C2(C(=O)N[C@@H]3CCN(C)C3)CCN(c3ccc(C(F)(F)F)cc3C#N)CC2)cn1 [Compound 1-51] ?
Result :: > 8.00

###

We begin with a simple list: items and their reported Ki.
# Study System: hMC2 receptor (crude hMC2R membranes from CRE-bla-CHO-K1 cells stably expressing hMC2 receptor and hMRAP accessory protein) (Homo sapiens, UniProt Q01718)

Completed entries (count: 5):
CCOc1ccccc1-c1ccc(C2(C(=O)N[C@H]3CCN(C)C3)CCN(c3ccc(C(F)(F)F)cc3F)CC2)cn1 ... < 10 nM
COc1ncc(F)cc1-c1ncc(C2(C(=O)N[C@H]3CCN(C)C3)CCN(c3ccc(C(F)(F)F)cc3C#N)CC2)cc1F ... < 10 nM
CNCCNC(=O)C1(c2ccc(-c3ccccc3OC)nc2)CCN(c2ccc(C(F)(F)F)cc2C#N)CC1 ... < 10 nM
COc1ccccc1-c1ccc(C2(C(=O)NC3CN(C)C3)CCN(c3ccc(Cl)cc3C#N)CC2)cn1 ... < 10 nM
CCOc1ncccc1-c1ccc(C2(NC(=O)CCNC)CCN(c3ccc(C(F)(F)F)cc3C#N)CC2)cn1 ... < 10 nM

Now examine the next entry.
Query :: Which Ki is reported for this compound? CN1CC(F)(F)C[C@H]1CNC(=O)C1(c2ccc(-c3cccn3C)nc2)CCN(c2ccc(C(F)(F)F)cc2C#N)CC1
Result :: 100 to 1000 nM

###

# Study System: hMC2 receptor (crude hMC2R membranes from CRE-bla-CHO-K1 cells stably expressing hMC2 receptor and hMRAP accessory protein) (Homo sapiens, UniProt Q01718)
# Construct: crude membrane fractions
# Experiment Summary: hMC2 membrane binding assay ([125I]ACTH (1-39) Tyr23, SPA)
# Condition Summary: displacement of 0.2 nM [125I]ACTH (1-39) Tyr23 from hMC2R membranes, 1.5 hours at room temperature; read-out: MC2R binding potency
We begin with a simple list: items and their reported Ki.

CN1CC[C@H](OC(=O)NC2(c3ccc(-c4cccn4C)nc3)CCN(c3ccc(C(F)(F)F)cc3C#N)CC2)C1 ... < 10 nM
C[C@@H](CN(C)C)NC(=O)C1(c2cnc(-c3cccn3C)c(F)c2)CCN(c2ccc(C(F)(F)F)cc2C#N)CC1 ... < 10 nM

Now consider the entry below.
Query :: Requested field: Ki. Item: CN(C)C1(CNC(=O)C2(c3ccc(-c4cccn4C)nc3)CCN(c3ccc(C(F)(F)F)cc3C#N)CC2)CC1
Result :: 10 to 100 nM
